Exercise: for every item that follows, state its recorded MIC.
- Tested on: Enterococcus faecium
- Experiment Description: Antimicrobial activity against Streptococcus faecium by broth dilution technique
- Format: functional

Please review the entries below; each comes with its answer.
# Cpd Smiles, Target Under Test, Measured
rows = [
    ("O=C1N/C(=N/c2nsc3ccccc23)S/C1=C\\c1ccccc1[N+](=O)[O-]", "Enterococcus faecium", "> 100 µg/mL"),
    ("O=C1CS/C(=N/c2nc3ccccc3s2)N1", "Enterococcus faecium", "> 100 µg/mL"),
    ("O=C1N/C(=N\\c2nccs2)S/C1=C\\c1cccc(Cl)c1", "Enterococcus faecium", "3 µg/mL"),
]

Field: MIC. Fill in for each record below.
1. O=C1N/C(=N\c2nc3ccccc3s2)S/C1=C\c1cccc(Cl)c1
2. O=C1CS/C(=N\c2nsc3ccccc23)N1
3. COc1ccc(/C=C2\S/C(=N/c3nccs3)NC2=O)cc1
4. O=C1N/C(=N\c2nc3ccccc3s2)S/C1=C\c1cccc([N+](=O)[O-])c1
5. O=C1N/C(=N\c2nccs2)S/C1=C\c1ccccc1[N+](=O)[O-]

1. > 100 µg/mL
2. > 100 µg/mL
3. > 100 µg/mL
4. > 100 µg/mL
5. 25 µg/mL
